Molecular target: mumps hemagglutinin neuraminidase (HN) globular head domain, monomeric (Mumps virus genotype G (strain not …))
PARAMETER: binding result

BINDER: C9 (antibody, V domains shown) VH: EVKLLQSGGGLVQPGGSLKLSCAASGIDFSRYWMGWVRRAPGKGLEWIGEINPDSSTINYAPSLKDKFIISRDNAKNTLYLQMIKVRSEDTALYYCARYWADWFFDVWGTGTTVTVSS VL: DIQMTQSSSYLSVSLGGRVTITCTASDHIDNWLAWYQQKPGNAPRLLLSGATSLDTGVPSRFSGSGSGKDFTLSITSLQTEDVATYYCQQYWSTPYTFGGGTKLEIK
RESULT: binds
//
BINDER: F11 (antibody, V domains shown) VH: EVQLQQSGPELVKPGASVKISCKASGYTFTDYYMNWVKQSHGKSLEWVGDINPNNGVTRYNQNFKGKGTMTVDKSSRTAYMEFRSLTSEDSAVYYCGRLGYYGKYKDGMDYWGQGTSVTVSS VL: DIQMTQSPASLSVSVGETVTITCRASDNIYSNLAWYQQRQGKSPQLLVYAATNLLDGVPSRFSGSGSGTHYSLKINSLQSEDFGTYYCQHFWGTPFTFGSGTKLEIK
RESULT: binds
//
BINDER: B11 (antibody, V domains shown) VH: EVQLQQSGAEPVRPGTSVKFSCKASGYTLTDYWMHWVKQRPGQGLDWIGVIDPSDSYTTYNQKFKGKATLTVDKSSSTAYMQLSSLTSEDSAVYYCARGPTLYYFDYWGQGTTLTVSS VL: DIVMTQPQKFMSTSVGDRVSVTCKASQNVGTNVVWCQQKPGQSPKALIYSASYLYSGVPDRFTGTGSGTDFTLTISNVQSEDLAEYFCQQYNNYPLTFGAGTKLELK
RESULT: binds
//
BINDER: B12 (antibody, V domains shown) VH: EVQLQQSGPELVKPGASVKIPCKASGYTFTEYNMDWVKQSHGKSLEWIGDINPNNGDTIYNQKFKGKATLTVDKASSTAYMELRSLTSEDTAVYYCARGTLYGSNYYFVMDYWGQGTSVTVSS VL: DIQITQSPASLSASVGETVTITCGASENIYGALNWFQRKQGKSPQLLIYGATTLADGMSSRFSGNGSGRQYSLKISGLHPDDVATYYCQNVLSIPWTFGGGTKLEIK
RESULT: binds
//
BINDER: G9 (antibody, V domains shown) VH: EVQLQQSGPEQVRTGASVKISCKASGYFFTGYYLHWVRQSHGKSLEWIGYIRSYNGATKYNQKFEGKTTFTVDTSSSTAYMQINSLTSEDSAVYYCAKDEDSGYAMDYWGQGTSVTVSS VL: DIVMTQSHKFMSTLVGDRVAITCKASQDVSSAVAWYQQKPGQSPKLLIYSASYRFTGVPDRFTGSGSGTDFTFTITTVQTEDLAIYFCQQHYSLPWTFGGGTKLEIK
RESULT: binds
